The following molecules have recorded Ki on Catenin beta-1 (Homo sapiens).
Sequence (P35222 whole entry): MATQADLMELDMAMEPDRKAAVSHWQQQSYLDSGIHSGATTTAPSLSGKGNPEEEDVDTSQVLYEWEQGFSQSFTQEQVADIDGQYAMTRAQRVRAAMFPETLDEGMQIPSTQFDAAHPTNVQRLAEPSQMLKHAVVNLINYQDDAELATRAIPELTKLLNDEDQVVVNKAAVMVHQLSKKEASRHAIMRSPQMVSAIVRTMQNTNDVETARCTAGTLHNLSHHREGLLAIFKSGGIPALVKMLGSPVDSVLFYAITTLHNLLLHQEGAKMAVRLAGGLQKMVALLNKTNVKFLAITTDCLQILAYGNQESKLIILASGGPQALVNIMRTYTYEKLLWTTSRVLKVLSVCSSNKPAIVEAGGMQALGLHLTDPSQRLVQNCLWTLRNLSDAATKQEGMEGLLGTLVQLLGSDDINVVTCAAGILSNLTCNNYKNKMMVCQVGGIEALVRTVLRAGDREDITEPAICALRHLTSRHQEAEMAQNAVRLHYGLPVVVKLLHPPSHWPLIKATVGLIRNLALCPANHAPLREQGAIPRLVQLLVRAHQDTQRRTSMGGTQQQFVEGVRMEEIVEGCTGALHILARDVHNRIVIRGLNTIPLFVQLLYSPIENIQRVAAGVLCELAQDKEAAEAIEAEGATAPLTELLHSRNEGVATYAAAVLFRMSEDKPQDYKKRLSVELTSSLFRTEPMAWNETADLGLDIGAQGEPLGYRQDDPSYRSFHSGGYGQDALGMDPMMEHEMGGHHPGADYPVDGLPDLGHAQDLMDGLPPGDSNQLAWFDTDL

Prompt line: Look up Ki for this molecule: "COC(=O)[C@H](CCC(=O)O)NC(=O)[C@H](CC(=O)O)NC(=O)[C@H](Cc1ccc2ccccc2c1)NC(=O)Cc1nc2ccc(Cl)cc2o1"
Response line: > 100 µM

Prompt line: Another molecule: "COC(=O)[C@H](CCC(=O)O)NC(=O)[C@H](CC(=O)O)NC(=O)[C@H](Cc1ccc2ccccc2c1)NC(=O)c1cc2ccc(Cl)cc2[nH]1"
Response line: 15 µM

Prompt line: Another molecule: "COC(=O)[C@H](CCC(=O)O)NC(=O)[C@H](CC(=O)O)NC(=O)[C@H](Cc1ccc2ccccc2c1)NC(=O)Cc1nc2ccc(Cl)cc2s1"
Response line: 22 µM

Prompt line: Another molecule: "COC(=O)[C@H](CCC(=O)O)NC(=O)[C@H](CC(=O)O)NC(=O)[C@H](Cc1ccc2ccccc2c1)NC(=O)Cc1nc2cc(Cl)ccc2s1"
Response line: > 100 µM

Prompt line: Another molecule: "CCOC(=O)CC[C@H](NC(=O)[C@H](CC(=O)OCC)NC(=O)[C@H](Cc1ccc2ccccc2c1)NC(=O)c1cc2cc(OC)ccc2[nH]1)C(=O)OC"
Response line: > 100 µM

Prompt line: Another molecule: "COC(=O)[C@H](CCC(=O)O)NC(=O)[C@H](CC(=O)O)NC(=O)[C@H](Cc1ccc2ccccc2c1)NC(=O)c1cc2cc(C)ccc2[nH]1"
Response line: > 100 µM

Prompt line: Another molecule: "COC(=O)[C@H](CCC(=O)O)NC(=O)[C@H](CC(=O)O)NC(=O)[C@H](Cc1ccc2ccccc2c1)NC(=O)c1cc2cc(OC)ccc2[nH]1"
Response line: > 100 µM

Prompt line: Another molecule: "COC(=O)[C@H](CCC(=O)O)NC(=O)[C@H](CC(=O)O)NC(=O)[C@H](Cc1ccc2ccccc2c1)NC(=O)Cc1nc2cc(Cl)ccc2[nH]1"
Response line: > 100 µM

Prompt line: Another molecule: "COC(=O)[C@H](CCC(=O)O)NC(=O)[C@H](CC(=O)O)NC(=O)[C@H](Cc1ccc2ccccc2c1)NC(=O)Cc1c[nH]c2ccc(Cl)cc12"
Response line: > 100 µM

Prompt line: Another molecule: "COC(=O)[C@H](CCC(=O)O)NC(=O)[C@H](CC(=O)O)NC(=O)[C@H](Cc1ccc2ccccc2c1)NC(=O)Cc1nc2cc(Cl)ccc2o1"
Response line: > 100 µM

Prompt line: Another molecule: "COC(=O)[C@H](CCC(=O)O)NC(=O)[C@H](CC(=O)O)NC(=O)[C@H](Cc1ccc2ccccc2c1)NC(=O)Cc1c[nH]c2cc(Cl)ccc12"
Response line: > 100 µM

====

The following molecules have recorded IC50 on Catenin beta-1 (Homo sapiens).

Prompt line: Look up IC50 for this molecule: "COC(=O)[C@H](CCC(=O)O)NC(=O)[C@H](CC(=O)O)NC(=O)[C@H](Cc1ccc2ccccc2c1)NC(=O)Cc1nc2cc(Cl)ccc2o1"
Response line: > 400 µM

Prompt line: Another molecule: "COC(=O)[C@H](CCC(=O)O)NC(=O)[C@H](CC(=O)O)NC(=O)[C@H](Cc1ccc2ccccc2c1)NC(=O)Cc1nc2ccc(Cl)cc2s1"
Response line: 88 µM

Prompt line: Another molecule: "CCOC(=O)CC[C@H](NC(=O)[C@H](CC(=O)OCC)NC(=O)[C@H](Cc1ccc2ccccc2c1)NC(=O)c1cc2cc(OC)ccc2[nH]1)C(=O)OC"
Response line: > 400 µM

Prompt line: Another molecule: "COC(=O)[C@H](CCC(=O)O)NC(=O)[C@H](CC(=O)O)NC(=O)[C@H](Cc1ccc2ccccc2c1)NC(=O)c1cc2cc(OC)ccc2[nH]1"
Response line: > 400 µM

Prompt line: Another molecule: "COC(=O)[C@H](CCC(=O)O)NC(=O)[C@H](CC(=O)O)NC(=O)[C@H](Cc1ccc2ccccc2c1)NC(=O)Cc1c[nH]c2ccc(Cl)cc12"
Response line: > 400 µM

The reported measurements were obtained from ChEMBL document CHEMBL4339194.
